- Test: Human HepG2 cell viability assay in 384 well format
- Type: toxicity, cell-based
- Design: dose 125 nL, time 70.5 hour; concentration not given beside the values
- Assay context: HepG2 cells, read-out: Inhibition
Item-by-item account of cytotoxicity at 70.5 h
Observation type: cytotoxicity at 70.5 h (%)

• Cc1cc(C(=O)NC(C)Cc2ccc(N(C)C)cc2)n(C)n1 (stereo not drawn) = -1.34
• Cc1cnccc1N1CCCN(C(=O)CCCc2cn[nH]c2)CC1 = 2.95
• Cc1ccc(CN2CCc3c(nnn3C)C2COCc2ccccc2)s1 (stereo not drawn) = -7.66
• COc1ccccc1OCCNCc1c(C)nn(C)c1N(C)C = -3.32
• O=C(CCc1nc2ccccc2[nH]1)Nc1ccc2c(c1)OCC(=O)N2 = -11.6
• CCOCc1cccc(NCc2c[nH]nc2-c2cccnc2)c1 = -2.34
• Cc1nc(CCN)cc(N2CCCN(C(=O)c3ccco3)CC2)n1 = -4.43
• Cc1ccc(NC(=O)C2CSCN2C(=O)c2cnn(C)c2)c(C)c1 (stereo not drawn) = -4.99

---

Item-by-item account of cytotoxicity at 70.5 h
- Test: Human HepG2 cell viability assay in 384 well format
- Assay type: toxicity, cell-based
- Parameters: dose 125 nL, time 70.5 hour; concentration not given beside the values
- Assay context: HepG2 cells, read-out: Inhibition
Observation type: cytotoxicity at 70.5 h (%)

- Cc1n[nH]c(C2CN(C(=O)c3cc4c(s3)CCC4)CCO2)n1 (centres undefined): -14.5
- COCCOc1ncccc1C(=O)Nc1ccc(-n2cncn2)c(F)c1: -6.17
- CCC(=O)N1CCC(c2nc3ccc(NC(C)C)cn3n2)CC1: 4.46
- c1ccc(-c2nnc(CNCC3CCCN3c3cccnn3)o2)cc1 (centres undefined): 7.04
- Cc1c[nH]c(C(=O)N2CCn3nc(C(=O)NC4CC4)cc3C2)n1: 24.5
- Cc1cnc(CNC(=O)[C@@]23CCO[C@@H]2CCN(C2CCCC2)C3)cn1: -1.73
- CN1CCC(Cc2cc(Nc3ncccn3)ncn2)CC1: -4.15
- COCCOC[C@]1(CNCc2ccc(F)cc2)C[C@@H](O)[C@@H](O)C1: 11.8
- N#Cc1ccc(-c2nnc(CSCCN3CCOCC3)o2)cc1: -5.77

---

- Test: Human HepG2 cell viability assay in 384 well format
- Type: toxicity, cell-based
- Set-up: dose 125 nL, time 70.5 hour; concentration not given beside the values
- Assay context: HepG2 cells, read-out: Inhibition
Observation type: cytotoxicity at 70.5 h (%)

* Cc1cccc(N2CCN(S(=O)(=O)CCN)CC2)c1 | 21.4
* CNc1ccc(CC2CCCN(Cc3c[nH]cn3)C2)nn1 (stereo not drawn) | -3.24
* COCCn1cc(NC(=O)NCC2CCN(c3ccccc3)C2)cn1 (stereo not drawn) | -3.34
* Cn1cc(CN2CCn3cc(CNC(=O)c4cccn4C)nc3C2)cn1 | -2.17
* Cc1ncc(C(=O)N2CCCC(C(=O)CCc3ccccc3)C2)s1 (stereo not drawn) | -13.8
* CN(C)C(=O)N1CC(=O)NCC12CCN(C(=O)c1ccco1)C2 (stereo not drawn) | -7.28
* CSc1ccc(-n2ccnc2-c2cc3n(n2)CCNC3)cc1 | 25.5
* O=C(NCc1ccco1)[C@H]1CC[C@@H]2[C@@H](CCN2Cc2nccs2)O1 | -4.65
* CC(C)c1nnc2n1CCN(Cc1csc(CC(=O)N(C)C)n1)C2 | 49.9
* Cc1cccc(N2CC[C@@H]3[C@@H](CO[C@H]3CNS(C)(=O)=O)C2)n1 | 10.6
* c1cc(CN2CCc3ncc(CN4CCOCC4)n3CC2)cs1 | 16.8
* Cc1nc(CCC(N)=O)cc(C2CCCN2S(C)(=O)=O)n1 (stereo not drawn) | 0.687
* Cc1cccc2c(CCNC(=O)[C@H](N)c3ccccc3)c[nH]c12 | -17.6
* Cc1cc2[nH]c(=O)oc2cc1S(=O)(=O)N1C[C@@H](N(C)C)[C@H](C(C)C)C1 | -10.7
* CCN(CC)S(=O)(=O)NCC1COc2ccccc2O1 (stereo not drawn) | 24.9
* O=C1CSC(c2ccc3c(c2)OCO3)c2cn[nH]c2N1 (stereo not drawn) | -4
* O=C(N1CCSCC1)C1(O)Cc2ccccc2C1 | -2.54
* Cc1noc(CNc2cccc(C(=O)N3CCCC(O)C3)c2)n1 (stereo not drawn) | -6.36
